Ref: PubChem BioAssay (NCI)

- Assay Comment: NCI Yeast Anticancer Drug Screen. Data for the cln2 rad14 strain (AID 165);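 also: 0% = growth equal to vehicle treated cultures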
- Experimental Setup: S. cerevisiae cln2 rad14 strain, at 50.0 µM, stronger effect = higher value
The panel holds about 79,000 compounds, 15% with a hit somewhere; the sample as a whole holds those more often.
Measure: growth inhibition (%)
Only the number, expressed in %, is required.

Worked set:
{"Compound": "OC(C1CCCCC1)(C1CCC2(CCCCC2)CC1)C1CCCC2CCCCC21 (stereo not drawn)", "Measure": "growth inhibition", "Recorded Value": 21.5}
{"Compound": "O=C(O)c1cc(=O)[nH]c(=O)[nH]1.[Cu+2]", "Measure": "growth inhibition", "Recorded Value": -35.3}
{"Compound": "O=c1[nH]c2cc([N+](=O)[O-])ccc2nc1/C=C(\\O)c1ccccc1", "Measure": "growth inhibition", "Recorded Value": -3.7}
{"Compound": "COc1ccc(C(=O)/C(Br)=C\\C(=O)O)cc1", "Measure": "growth inhibition", "Recorded Value": 28.6}
{"Compound": "CN(C=O)c1cccc(C(=O)O)c1", "Measure": "growth inhibition", "Recorded Value": -29.5}

Exam item: Give a short answer stating reported growth inhibition for C[N+]1(C)CCC2=CC(=O)CC(c3ccccc3)C2C1 (stereo not drawn) .
Marked response: 20.8

Exam item: Give a short answer stating reported growth inhibition for COC(=O)c1cc(O)c(C(=O)OC)s1 .
Marked response: -27.9

Exam item: Give a short answer stating reported growth inhibition for C[n+]1c2ccccc2c(CNC(CCC(N)=O)C(=O)O)c2ccccc21 (stereo not drawn) .
Marked response: 61.8
